- protocolDetails: folding stability dG unfold (combined trypsin and chymotrypsin); higher = more stable
Note to self: values exactly at 1 kcal/mol are yes (1). So folding stability dG unfold at or above 1 kcal/mol is yes (1), below is no (0).

Solved entries:
INSERT INTO results (sequencetext, category) VALUES
  ('SAGGMYEIVDLLSVEPDPETGALTRTFLLRDPDSDRFLVAEVRIDPENPDRVEIRLYDEDGNLIAEFPSAGG [r13_658_TrMRF]', 'yes (1)'),
  ('SAGGSAGGSSMSFSFSERRDGKEYSVSVTTAVTPLTLPNGTLRTLTTPTTTVTDPSGKVLSTSSAGGSAGGS [r20_224_JUSTAS]', 'no (0)'),
  ('SAGGSAGGSGSSVERSPSGEVVTTTPTAGGTLRTVHDPSGTRTLTDVASGKVLATYTPAVPVASAGGSAGGS [r12_235_JUSTAS]', 'no (0)'),
  ('SAGGSAGGSKPRPIDIMFPNPENGRPVMIRIEYTKDKIKAEWYFGNKPQEKKIDDPEDLLEFISAGGSAGGS [r12_299_TrROS]', 'no (0)'),
  ('SAGGSEPPKIKKIKDINVKHERHNDRPYWEVKIRIKLKNGNTAEIDIEMPGMPPEEAREQIKDILKSAGGSA [r2_26_TrROS]', 'no (0)'),
  ('SAGGSASLEEVIESVTKPLGAKGEIDPETGVTYVQDPSGENLTLETEDGRPLKVTYEPEGKWTAVESAGGSA [r15_256_JUSTAS]', 'no (0)');

For this sequence, is measured folding stability dG unfold 1 kcal/mol or higher? SMQINVERNPENGTVIIHIPMEDMPPENIREILKDLPPNNKRVTIHMHDPPYMRWLKELAKEKGFPIKITSA [r9_919_TrROS]
no (0)

Does SAGGSAGGSAVPLTVLEEEKGEGTVVVITRGPDGKLIVTTYTKDPNSEKWTEKRTVLAPEELLSAGGSAGGS [r20_70_JUSTAS] have a reported folding stability dG unfold of at least 1 kcal/mol?
yes (1)

Check this sequence for folding stability dG unfold at or above 1 kcal/mol: SAMVLVKIELYDPENEEPLATAEFVVPEEDLEAFVEEAKKIFGVAEDAFIKVEAAPLEPLTDESGEEVLSAG [r14_297_TrMRF]
yes (1)

Given SAGGNIKITDIEMEPMNMPRKNEDGKEKPRPMWQFKVRIRDDGKPIAEVPFTSMDDMRNAVKKLLKKSAGGS [r8_21_TrROS] , state whether its folding stability dG unfold is at least 1 kcal/mol.
no (0)

Textbook exercise: given the entry SAGGMEKVKVRVFFIDEETGEPREVEVEATLEELRELIEKIPDKGRVLVKLELPDEERIVTLEELKERSAGG [r13_254_TrMRF] , state whether its folding stability dG unfold is greater than or equal to 1 kcal/mol.
yes (1)

Reported folding stability dG unfold reaches at least 1 kcal/mol for SAGDRIRITMPFDDLRKIMDEIGYPPEQMTAEEFADRLAEHFPGVKVDIEMDREDGYFTVEIELPPGMKSAG [r5_264_TrROS] ?
yes (1)

Does SAGGSAGGSEGFVLRVRRYRRRPDDRVRVPVSEAELEVLPELADAVARALREASPEVEVELRPSAGGSAGGS [r12_342_TrMRF] have a reported folding stability dG unfold of at least 1 kcal/mol?
no (0)

hey, is folding stability dG unfold for this one >= 1 kcal/mol? SAGGSAGGSKTVYRITIYNEKTGKKLVIEIEESMSEEEKEQKIKDLLKKLLPPGAKIKIEKVPSAGGSAGGS [r20_213_TrROS_Hall]
yes (1)
